Values were extracted from the supplement of paper PMC10567573.

# key: entry, value: protein stability index
B1: BCL2L13 (parent)
chain: MASSSTVPLGFHYETKYVVLSYLG

variants of: B1; assay: protein stability index of a GFP-peptide fusion (GPS, HEK-293T) (PSI 1-6); higher = more stable; conditions: c terminus: a fixed tail appended;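 also: lentivirally expressed fusions sorted by FACS into six bins by GFP to DsRed ratio, PSI derived from sequencing read proportions per bin multiplied by bin number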

{"MUTANT DESIGNATION": "L20V", "protein stability index": 2.82}
{"MUTANT DESIGNATION": "Y13M", "protein stability index": 2.14}
{"MUTANT DESIGNATION": "G10M", "protein stability index": 2.73}
{"MUTANT DESIGNATION": "Y22K", "protein stability index": 2.37}
{"MUTANT DESIGNATION": "L9G", "protein stability index": 2.75}
{"MUTANT DESIGNATION": "L23K", "protein stability index": 2.3}
{"MUTANT DESIGNATION": "S4Q", "protein stability index": 3.25}
{"MUTANT DESIGNATION": "T6E", "protein stability index": 3.45}
{"MUTANT DESIGNATION": "K16E", "protein stability index": 4.22}
{"MUTANT DESIGNATION": "V7M", "protein stability index": 2.35}
{"MUTANT DESIGNATION": "A2E", "protein stability index": 2.06}
